Values compiled from patent US20260042764A1.

target: Avi-KRAS WT (1-169) GppNHp/RAF1 RBD-3xFLAG (52-151) (Homo sapiens); construct: Avi-KRAS WT (1-169); assay: Raf1-KRAS WT-GppNHP disruption HTRF assay (Biological Example 1); assay type: binding; conditions: KRAS WT-GppNHp/RAF1 RBD HTRF
Sequence (P01116 1-169 isoform P01116-2): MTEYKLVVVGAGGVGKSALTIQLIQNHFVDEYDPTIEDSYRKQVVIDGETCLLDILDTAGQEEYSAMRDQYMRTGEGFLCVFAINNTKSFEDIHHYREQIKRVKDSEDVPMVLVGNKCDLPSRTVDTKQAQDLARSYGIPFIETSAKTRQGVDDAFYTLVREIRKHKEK
Listing of entries alongside the reported IC50.

Known IC50 results, listed for orientation:
COMPOUND: N#Cc1c(N)sc2c(F)ccc(-c3c(C(F)(F)F)cc4c(N5CC6CC(C5)O6)nc(OC[C@@]56CCCN5C[C@@]5(CC5(F)F)C6)nc4c3F)c12
IC50: 100 to 1000 nM
//
COMPOUND: CCN(c1nc(OC[C@@]23CCCN2C[C@H](F)C3)nc2c(F)c(-c3ccc(F)c4sc(N)c(C#N)c34)c(C(F)(F)F)cc12)[C@H]1CCN(C(=O)N(C)C)C1
IC50: < 100 nM
//
COMPOUND: CC(C)C(=O)N1C[C@@H](N(C)c2nc(OC[C@@]34CCCN3C[C@H](F)C4)nc3c(F)c(-c4ccc(F)c5sc(N)c(C#N)c45)c(C(F)(F)F)cc23)C[C@H]1C
IC50: 100 to 1000 nM

What the record says about N#Cc1c(N)sc2c(F)ccc(-c3c(C(F)(F)F)cc4c(N5CCn6nc(C(=O)N7CCC(O)C7)cc6C5)nc(OCC56CCCN5CC(F)C6)nc4c3F)c12 (stereo not drawn) : IC50 is 100 to 1000 nM

Looking up CCN(c1nc(OC[C@@]23CCCN2C[C@H](F)C3)nc2c(F)c(-c3ccc(F)c4sc(N)c(C#N)c34)c(C(F)(F)F)cc12)[C@H]1CCN(C(=O)OC(C)C)C1 (atropisomer, axis not shown) , I see its IC50 listed as 100 to 1000 nM

So for CCN(c1nc(OC[C@@]23CCCN2C[C@H](F)C3)nc2c(F)c(-c3ccc(F)c4sc(N)c(C#N)c34)c(C(F)(F)F)cc12)[C@H]1CCN(C(=O)C2CCC2)C1 (atropisomer, axis not shown) , the logged IC50 turned out to be < 100 nM

Form field IC50, entry N#Cc1c(N)sc2c(F)ccc(-c3c(C(F)(F)F)cc4c(N5CCCC[C@@H](O)C5)nc(OC[C@@]56CCCN5C[C@H](F)C6)nc4c3F)c12 : < 100 nM

GET /value?item= N#Cc1nnn2c1CN(c1nc(OC[C@@]34CCCN3C[C@H](F)C4)nc3c(F)c(-c4ccc(F)c5sc(N)c(C#N)c45)c(C(F)(F)F)cc13)CC2 &field=IC50 returns 100 to 1000 nM

Documented IC50 of CN(c1nc(OC[C@@]23CCCN2C[C@H](F)C3)nc2c(F)c(-c3ccc(F)c4sc(N)c(C#N)c34)c(C(F)(F)F)cc12)C1CCS(=O)(=O)CC1 : 100 to 1000 nM

compound N#Cc1c(N)sc2c(F)ccc(-c3c(C(F)(F)F)cc4c(N5CCN6C(=O)CCC6C5)nc(OCC56CCCN5CC(F)C6)nc4c3F)c12 (stereo not drawn) [Compound 412] , IC50 observed: 100 to 1000 nM

Lab book: IC50 of N#Cc1c(N)sc2c(F)ccc(-c3c(C(F)(F)F)cc4c(N5CC6CC(O)C(C6)C5)nc(OC[C@@]56CCCN5C[C@H](F)C6)nc4c3F)c12 (stereo partly drawn) noted as 1000 to 10000 nM

IC50 in this record for CCN(c1nc(OC[C@@]23CCCN2C[C@H](F)C3)nc2c(F)c(-c3ccc(F)c4sc(N)c(C#N)c34)c(C(F)(F)F)cc12)[C@@H]1CCS(=O)(=O)C1 : 100 to 1000 nM

For record C[C@@H]1C[C@H](N(C)c2nc(OC[C@@]34CCCN3C[C@H](F)C4)nc3c(F)c(-c4ccc(F)c5sc(N)c(C#N)c45)c(C(F)(F)F)cc23)CN1C(=O)C1CC1 the listed IC50 is 100 to 1000 nM

Record summary for CC(=O)N1CCC2[C@H]1CCN2c1nc(OC[C@@]23CCCN2C[C@H](F)C3)nc2c(F)c(-c3ccc(F)c4sc(N)c(C#N)c34)c(C(F)(F)F)cc12 (stereo partly drawn) : reported IC50 = 1000 to 10000 nM

So, CC(C)C(=O)N1CC[C@@H](N(C)c2nc(OC[C@@]34CCCN3C[C@H](F)C4)nc3c(F)c(-c4ccc(F)c5sc(N)c(C#N)c45)c(C(F)(F)F)cc23)[C@@H]1C ? Its IC50 was 100 to 1000 nM

Please fill in: IC50 reported for N#Cc1c(N)sc2c(F)ccc(-c3c(C(F)(F)F)cc4c(N5[C@@H]6CO[C@H]7C6OC[C@H]75)nc(OC[C@@]56CCCN5C[C@H](F)C6)nc4c3F)c12 = 100 to 1000 nM
